Reference source for all entries: ChEMBL document CHEMBL1146698

Consider the following compounds; for each one, report its pIC50.
target: Beta-secretase 1 (Homo sapiens, UniProt P56817); assay: In vitro inhibition of Beta-secretase-1 in HEK293 (Human Embryonic Kidney) cell line.
Sequence (P56817 whole entry): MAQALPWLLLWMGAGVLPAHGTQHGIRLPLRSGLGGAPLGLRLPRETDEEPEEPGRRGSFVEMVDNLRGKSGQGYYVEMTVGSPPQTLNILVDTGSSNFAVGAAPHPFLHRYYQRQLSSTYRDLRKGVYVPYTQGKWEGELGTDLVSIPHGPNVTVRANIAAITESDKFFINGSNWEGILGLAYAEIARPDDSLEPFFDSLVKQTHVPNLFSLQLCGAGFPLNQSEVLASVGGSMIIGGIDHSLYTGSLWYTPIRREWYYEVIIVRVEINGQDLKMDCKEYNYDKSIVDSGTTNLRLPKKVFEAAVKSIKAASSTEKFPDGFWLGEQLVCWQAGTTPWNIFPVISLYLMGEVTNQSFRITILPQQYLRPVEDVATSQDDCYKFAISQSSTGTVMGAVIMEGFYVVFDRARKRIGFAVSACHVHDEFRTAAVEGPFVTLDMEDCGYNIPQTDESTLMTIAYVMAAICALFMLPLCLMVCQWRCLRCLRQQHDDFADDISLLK
One number for each entry, as −log10 of the molar value.

Take a look at these entries with their results.
COMPOUND: COCC[C@H](NC(=O)[C@@H](NC(=O)OC(C)(C)C)C(C)C)C(=O)N[C@@H](Cc1ccccc1)[C@@H](O)CC(C)C(=O)NC(C(=O)NCc1ccncc1)C(C)C (single isomer, unassigned)
pIC50: 6.90
//
COMPOUND: CCC[C@H](NC(=O)OC(C)(C)C)C(=O)N[C@@H](C)C(=O)N[C@@H](Cc1ccccc1)[C@@H](O)CC(C)C(=O)NC(C(=O)NCc1ccncc1)C(C)C (single isomer, unassigned)
pIC50: 7.39

Provide the reported pIC50 of each entry below, same order.
1. CC(C[C@H](O)[C@H](Cc1ccccc1)NC(=O)[C@H](C)NC(=O)[C@H](CN(C)C)NC(=O)OC(C)(C)C)C(=O)NC(C(=O)NCc1ccncc1)C(C)C (single isomer, unassigned)
2. CC(C[C@H](O)[C@H](Cc1ccccc1)NC(=O)[C@H](C)NC(=O)[C@H](CCN(C)C)NC(=O)OC(C)(C)C)C(=O)NC(C(=O)NCc1ccncc1)C(C)C (single isomer, unassigned)
3. CC[C@H](NC(=O)OC(C)(C)C)C(=O)N[C@@H](C)C(=O)N[C@@H](Cc1ccccc1)[C@@H](O)CC(C)C(=O)NC(C(=O)NCc1ccncc1)C(C)C (single isomer, unassigned)

Solution:
5.60
4.05
7.12

---

tested on: HEK293; experiment: In vitro inhibitory activity against beta-amyloid peptide (Abeta) in HEK293/APP751swe cells; format: functional, cell-based; conditions: Homo sapiens
ENDPOINT NAME: IC50 (nM)
Give bare numbers, in nM.

Recorded IC50, per entry:
MOLECULE: COC[C@H](NC(=O)OC(C)(C)C)C(=O)N[C@@H](C)C(=O)N[C@@H](Cc1ccccc1)[C@@H](O)CC(C)C(=O)NC(C(=O)NCc1ccncc1)C(C)C (single isomer, unassigned)
REPORTED RESULT: 4990
//
MOLECULE: CC(C[C@H](O)[C@H](Cc1ccccc1)NC(=O)[C@H](C)NC(=O)[C@@H](NC(=O)OC(C)(C)C)C(C)C)C(=O)NC(C(=O)NCc1ccncc1)C(C)C (single isomer, unassigned)
REPORTED RESULT: 2100
//
MOLECULE: CC(C[C@H](O)[C@H](Cc1ccccc1)NC(=O)C(C)NC(=O)[C@@H](NC(=O)OC(C)(C)C)C(C)C)C(=O)NC(C(=O)NCc1ccncc1)C(C)C (single isomer, unassigned)
REPORTED RESULT: 48000
//
MOLECULE: CC(C[C@H](O)[C@H](Cc1ccccc1)NC(=O)[C@H](C)NC(=O)[C@H](CCCC(F)(F)F)NC(=O)OC(C)(C)C)C(=O)NC(C(=O)NCc1ccncc1)C(C)C (single isomer, unassigned)
REPORTED RESULT: 13400
//
MOLECULE: CCC[C@H](NC(=O)OC(C)(C)C)C(=O)N[C@@H](CCSC)C(=O)N[C@@H](Cc1ccccc1)[C@@H](O)CC(C)C(=O)NC(C(=O)NCc1ccncc1)C(C)C (single isomer, unassigned)
REPORTED RESULT: 990

Batch: IC50 for all items listed.
1. CC[C@@H](C)[C@H](NC(=O)OC(C)(C)C)C(=O)N[C@@H](C)C(=O)N[C@@H](Cc1ccccc1)[C@@H](O)CC(C)C(=O)NC(C(=O)NCc1ccncc1)C(C)C (single isomer, unassigned)
2. CC[C@H](NC(=O)OC(C)(C)C)C(=O)N[C@@H](C)C(=O)N[C@@H](Cc1ccccc1)[C@@H](O)CC(C)C(=O)NC(C(=O)NCc1ccncc1)C(C)C (single isomer, unassigned)
3. CSCC[C@H](NC(=O)[C@@H](NC(=O)OC(C)(C)C)C(C)C)C(=O)N[C@@H](Cc1ccccc1)[C@@H](O)CC(C)C(=O)NC(C(=O)NCc1ccncc1)C(C)C (single isomer, unassigned)
4. CC(C)C[C@H](NC(=O)OC(C)(C)C)C(=O)N[C@@H](C)C(=O)N[C@@H](Cc1ccccc1)[C@@H](O)CC(C)C(=O)NC(C(=O)NCc1ccncc1)C(C)C (single isomer, unassigned)
5. COCC[C@H](NC(=O)[C@@H](NC(=O)OC(C)(C)C)C(C)C)C(=O)N[C@@H](Cc1ccccc1)[C@@H](O)CC(C)C(=O)NC(C(=O)NCc1ccncc1)C(C)C (single isomer, unassigned)

Solution:
1: 410; 2: 2800; 3: 1700; 4: 860; 5: 2900

---

Target sequence: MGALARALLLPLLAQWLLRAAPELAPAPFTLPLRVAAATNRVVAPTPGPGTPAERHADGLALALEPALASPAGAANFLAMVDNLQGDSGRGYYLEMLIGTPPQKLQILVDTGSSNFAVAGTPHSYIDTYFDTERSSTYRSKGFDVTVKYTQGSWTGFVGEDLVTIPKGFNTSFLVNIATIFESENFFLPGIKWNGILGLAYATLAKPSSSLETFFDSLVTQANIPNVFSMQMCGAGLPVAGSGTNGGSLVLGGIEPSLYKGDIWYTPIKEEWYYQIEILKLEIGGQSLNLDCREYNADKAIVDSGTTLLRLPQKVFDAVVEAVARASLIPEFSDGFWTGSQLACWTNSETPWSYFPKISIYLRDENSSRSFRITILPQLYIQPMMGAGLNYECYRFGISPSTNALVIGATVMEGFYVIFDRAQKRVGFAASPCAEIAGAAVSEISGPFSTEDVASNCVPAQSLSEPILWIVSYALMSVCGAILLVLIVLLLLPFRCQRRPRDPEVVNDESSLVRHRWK
ENDPOINT NAME: pIC50
One number for each entry, as −log10 of the molar value.

Exercise: Please give measured pIC50 of the following entry: CSCC[C@H](NC(=O)[C@@H](NC(=O)OC(C)(C)C)C(C)C)C(=O)N[C@@H](CC(C)C)[C@@H](O)C[C@@H](C)C(=O)N[C@H](C(=O)NCc1ccccc1)C(C)C
Solution: 6.30

---

biological target: UniProtKB P56817; experiment: In vitro inhibition of Beta-secretase-1 in HEK293 (Human Embryonic Kidney) cell line.; assay type: cell-based
Each record is given criterion met if its reported IC50 is strictly below 100 nM. Records at or above 100 nM are given criterion not met.

Worked examples follow.
COMPOUND: COCC[C@H](NC(=O)OC(C)(C)C)C(=O)N[C@@H](C)C(=O)N[C@@H](Cc1ccccc1)[C@@H](O)CC(C)C(=O)NC(C(=O)NCc1ccncc1)C(C)C (single isomer, unassigned)
CAT: criterion not met

COMPOUND: COC[C@H](NC(=O)OC(C)(C)C)C(=O)N[C@@H](C)C(=O)N[C@@H](Cc1ccccc1)[C@@H](O)CC(C)C(=O)NC(C(=O)NCc1ccncc1)C(C)C (single isomer, unassigned)
CAT: criterion not met

COMPOUND: CC(C[C@H](O)[C@H](Cc1ccccc1)NC(=O)[C@H](C)NC(=O)[C@@H](NC(=O)OC(C)(C)C)C(C)C)C(=O)NC(C(=O)NCc1ccncc1)C(C)C (single isomer, unassigned)
CAT: criterion met

Exercise: In the record for CC(C[C@H](O)[C@H](Cc1ccccc1)NC(=O)[C@H](C)NC(=O)[C@H](CC(F)F)NC(=O)OC(C)(C)C)C(=O)NC(C(=O)NCc1ccncc1)C(C)C (single isomer, unassigned) , is IC50 less than 100 nM?
Solution: criterion met

Exercise: Hi there! Is IC50 for CC(C[C@H](O)[C@H](Cc1ccccc1)NC(=O)[C@H](C)NC(=O)[C@H](CC(F)(F)C(F)F)NC(=O)OC(C)(C)C)C(=O)NC(C(=O)NCc1ccncc1)C(C)C (single isomer, unassigned) below 100 nM, do you know?
Solution: criterion not met

Exercise: Determine if CCC[C@H](NC(=O)OC(C)(C)C)C(=O)N[C@@H](CCSC)C(=O)N[C@@H](Cc1ccccc1)[C@@H](O)CC(C)C(=O)NC(C(=O)NCc1ccncc1)C(C)C (single isomer, unassigned) shows IC50 strictly lower than 100 nM.
Solution: criterion met

Exercise: # strict comparison: is reported IC50 < 100 nM? input = CC(C[C@H](O)[C@H](Cc1ccccc1)NC(=O)[C@H](C)NC(=O)[C@H](CCCC(F)(F)F)NC(=O)OC(C)(C)C)C(=O)NC(C(=O)NCc1ccncc1)C(C)C (single isomer, unassigned)
Solution: criterion not met

---

target: Beta-secretase 1 (Homo sapiens, UniProt P56817); assay: In vitro inhibition of Beta-secretase-1 in HEK293 (Human Embryonic Kidney) cell line.
ENDPOINT NAME: IC50 (nM)
Answers are plain numbers, in nM.

Solved cases (4 shown):
COMPOUND: CC(C[C@H](O)[C@H](Cc1ccccc1)NC(=O)C(C)NC(=O)[C@@H](NC(=O)OC(C)(C)C)C(C)C)C(=O)NC(C(=O)NCc1ccncc1)C(C)C (single isomer, unassigned)
IC50 / nM: 1060

COMPOUND: CSCC[C@H](NC(=O)[C@@H](NC(=O)OC(C)(C)C)C(C)C)C(=O)N[C@@H](Cc1ccccc1)[C@@H](O)CC(C)C(=O)NC(C(=O)NCc1ccncc1)C(C)C (single isomer, unassigned)
IC50 / nM: 70

COMPOUND: CC[C@@H](C)[C@H](NC(=O)OC(C)(C)C)C(=O)N[C@@H](C)C(=O)N[C@@H](Cc1ccccc1)[C@@H](O)CC(C)C(=O)NC(C(=O)NCc1ccncc1)C(C)C (single isomer, unassigned)
IC50 / nM: 42

COMPOUND: CC(C)C[C@H](NC(=O)OC(C)(C)C)C(=O)N[C@@H](C)C(=O)N[C@@H](Cc1ccccc1)[C@@H](O)CC(C)C(=O)NC(C(=O)NCc1ccncc1)C(C)C (single isomer, unassigned)
IC50 / nM: 63

Now turn to the next compound.
Exercise: Given CSCC[C@H](NC(=O)[C@@H](NC(=O)OC(C)(C)C)C(C)C)C(=O)N[C@@H](Cc1ccccc1)[C@@H](O)C[C@@H](C)C(=O)N[C@H](C(=O)NCc1ccccc1)C(C)C , report its IC50 on Beta-secretase 1 (Homo sapiens, UniProt P56817).
Solution: 28
